Assay Protocol: Lipophilicity, log D of the compound at pH 7.4 by shake flask method
Assay type: physicochemical
Experimental Context: buffer
Overview of reported logD across a group of compounds:
Could you respond with only the numeric value?

Sample answers from the record:
[[record]]
entry_smiles = "CCN(Cc1cc(C(F)(F)F)ccc1-c1cc(CC(=O)O)ccc1OC)C(=O)C1CC1"
recorded_endpoint = "logD"
recorded_number = 0.6

[[record]]
entry_smiles = "CCN(Cc1cc(C(F)(F)F)ccc1-c1cn(CC(=O)O)c2ccccc12)C(=O)C1CC1"
recorded_endpoint = "logD"
recorded_number = 1.4

[[record]]
entry_smiles = "CCN(Cc1cc(C(F)(F)F)ccc1-c1nn(CC(=O)O)c2ccccc12)C(=O)C1CC1"
recorded_endpoint = "logD"
recorded_number = 0.8


Now look at this entry.
Query string: Provide measured logD value, entry: CCN(Cc1cc(C(F)(F)F)ccc1-n1cc(CC(=O)O)c2cccnc21)C(=O)C1CC1
Result string: 0.5
